# TARGET_DESC: HIV IN (integrase) (Human immunodeficiency virus type 1 group M subtype B, UniProt P03366)

COMPOUND: CC(C)(C)c1ccc(C(=O)NN=Cc2c(O)ccc3ccccc23)cc1 [BBNH, reference compound]
TARGET_DESC: HIV IN (integrase) (Human immunodeficiency virus type 1 group M subtype B, UniProt P03366)
IC50: ~5 µM

----------
# Tested on: MT2 cells
# ASSAY_NAME: Cytotoxic activity against uninfected MT2 cells (XTT assay)
# Type: cell-based, human
# TEST_PARAMETERS: 4 days at 37° C., in DMSO

CPD_SMILES: CC(C)(C)c1ccc(C(=O)NN=Cc2c(O)ccc3ccccc23)cc1.C[O-].[Cl-].[Cl-].[Fe+3]
CC50: > 1 mM

----------
# TARGET_DESC: HIV-1 reverse transcriptase (p51/p66 RT), RDDP activity (Human immunodeficiency virus type 1 group M subtype B, UniProt P03366)
# Construct: 10 ng of p51/p66 heterodimeric RT per assay were used
# ASSAY_NAME: Inhibition of RNA dependent DNA polymerase activity of RT (RT RDDP)
MEASURED_ATTRIBUTE: IC50

MOLECULE: CC(C)(C)c1ccc(C(=O)NN=Cc2c(O)ccc3ccccc23)cc1 [BBNH, reference compound]
RECORDED_VALUE: 1900 nM

MOLECULE: CC(C)(C)c1ccc(C(=O)NN=Cc2c(O)ccc3ccccc23)cc1.C[O-].[Cl-].[Cl-].[Fe+3]
RECORDED_VALUE: 400 nM

----------
# Test system: HIV-1 infection of MT2 cells
# ASSAY_NAME: Inhibition of HIV-1 infection of uninfected MT2 cells
# Type: cell-based
# TEST_PARAMETERS: Human immunodeficiency virus 1, compound in DMSO, 30 min before HIV

COMPOUND: CC(C)(C)c1ccc(C(=O)NN=Cc2c(O)ccc3ccccc23)cc1 [BBNH, reference compound]
TARGET_DESC: HIV-1 infection of MT2 cells
IC50: 1500 nM
